Where these numbers come from: patent US11446287B2

MEASURED_ON: Recombinant human CBP containing the bromodomain (CBP-BD (1043-1159)) (Homo sapiens, UniProt Q92793)
Construct: Recombinant human CBP bromodomain (CBP-BD (1043-1159))
Sequence (Q92793 1081-1197): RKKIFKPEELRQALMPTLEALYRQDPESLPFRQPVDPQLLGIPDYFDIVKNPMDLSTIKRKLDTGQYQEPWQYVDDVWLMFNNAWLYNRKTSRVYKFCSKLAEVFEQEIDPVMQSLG
EXPERIMENTAL_PROTOCOL: CBP Alphascreen binding assay
CONDITION_SET: read-out: CREBBP (CBP) IC50
ATTRIBUTE_MEASURED: IC50

Worked examples follow.
MOLECULE: Cc1noc(C)c1-c1cnc2c(c1)c(-c1c(Cl)cc(C(=O)O)cc1OCC(F)F)cn2[C@H]1CCOC1 [P-0333]
IC50: 0.0001 to 1 µM

MOLECULE: Cc1noc(C)c1-c1cnc2c(c1)c(-c1ccc(C(=O)O)cc1OC(F)(F)F)c(C)n2-c1ncccc1C#N [P-0345]
IC50: 0.0001 to 1 µM

MOLECULE: Cc1noc(C)c1-c1cnc2c(c1)c(-c1ccc(C(=O)O)cc1OC1COC1)cn2[C@@H](C)c1ccccn1 [P-0137]
IC50: 0.0001 to 1 µM

MOLECULE: Cc1noc(C)c1-c1cnc2c(-c3ccccc3)cn(-c3cc(C(=O)O)ccc3OC(F)(F)F)c2c1 [P-0274]
IC50: 0.0001 to 1 µM

MOLECULE: CCOc1cc(C(=O)O)cc(OCC)c1-n1cc(-c2cnn(C3CC3)c2)c2ncc(-c3c(C)noc3C)cc21 [P-0265]
IC50: 0.0001 to 1 µM

// switching to the query molecule
Ask: Tell me the measured IC50 of Cc1noc(C)c1-c1cnc2c(Cc3ccccc3)cn(-c3ccnc(C(=O)O)c3)c2c1 [P-0053] , please.
Reply: 0.0001 to 1 µM

====

MEASURED_ON: Recombinant human BRD4 containing dual bromodomains (BRD4-BD12 (1-477)) (Homo sapiens)
Construct: Recombinant human BRD4 containing dual bromodomains (BRD4-BD12 (1-477))
EXPERIMENTAL_PROTOCOL: BRD4 Alphascreen binding assay
ATTRIBUTE_MEASURED: IC50

MOLECULE: COC(=O)c1cc(-c2cn(C(c3ccccn3)C3CCCC3)c3ncc(-c4c(C)noc4C)cc23)ccn1 (stereo not shown)
ASSAY_RESULT: 1 to 8 µM
--
MOLECULE: CNC(=O)c1ccc(-c2cn(C(c3ccccn3)C3CCCC3)c3ncc(-c4c(C)noc4C)cc23)cc1 (stereo not shown)
ASSAY_RESULT: 1 to 8 µM
--
MOLECULE: Cc1noc(C)c1-c1cnc2c(-c3ccccc3)cn(-c3ccc(C(=O)O)cc3OC(F)(F)F)c2c1
ASSAY_RESULT: 1 to 8 µM

Ask: Need IC50 of Cc1noc(C)c1-c1cnc2c(c1)c(-c1c(Cl)cc(C(=O)O)cc1OCC(F)F)cn2[C@H]1CCOC1 , thanks.
Reply: 8 to 1000 µM

====

MEASURED_ON: Recombinant human BRD4 containing dual bromodomains (BRD4-BD12 (1-477)) (Homo sapiens)
Construct: Recombinant human BRD4 containing dual bromodomains (BRD4-BD12 (1-477))
EXPERIMENTAL_PROTOCOL: BRD4 Alphascreen binding assay
pIC50: −log10 of the molar value.
Collected pIC50 values appear next to each entry.

TEST_SMILES: CCOc1cc(C(=O)O)cc(OCC)c1-n1cc(-c2cnn(C)c2)c2ncc(-c3c(C)noc3C)cc21
ASSAY_RESULT: 5.10 to 6.00

TEST_SMILES: Cc1noc(C)c1-c1cnc2c(c1)c(-c1cccc(C(=O)O)c1)cn2Cc1cccc(OC(F)(F)F)c1
ASSAY_RESULT: 3.00 to 5.10

TEST_SMILES: Cc1noc(C)c1-c1cnc2c(c1)c(-c1ccc(C(=O)O)cc1OC(F)(F)F)cn2-c1ccccc1C#N
ASSAY_RESULT: 3.00 to 5.10

As a next step, examine the molecule that follows.
Ask: Query: pIC50; subject: CCOc1cc(C(=O)O)cc(OCC)c1-n1cc(-c2cnn(CCN(C)C)c2)c2ncc(-c3c(C)noc3C)cc21
Reply: 5.10 to 6.00
